Readings of self-splicing fitness (ln) for the listed sequences
- ASSAY PROTOCOL: self-splicing fitness, log relative to wild type (ln ratio); higher = more splicing; Tetrahymena group I intron in knt gene, E. coli kanamycin selection, DiMSum; sequences stand for … in CUCUCU…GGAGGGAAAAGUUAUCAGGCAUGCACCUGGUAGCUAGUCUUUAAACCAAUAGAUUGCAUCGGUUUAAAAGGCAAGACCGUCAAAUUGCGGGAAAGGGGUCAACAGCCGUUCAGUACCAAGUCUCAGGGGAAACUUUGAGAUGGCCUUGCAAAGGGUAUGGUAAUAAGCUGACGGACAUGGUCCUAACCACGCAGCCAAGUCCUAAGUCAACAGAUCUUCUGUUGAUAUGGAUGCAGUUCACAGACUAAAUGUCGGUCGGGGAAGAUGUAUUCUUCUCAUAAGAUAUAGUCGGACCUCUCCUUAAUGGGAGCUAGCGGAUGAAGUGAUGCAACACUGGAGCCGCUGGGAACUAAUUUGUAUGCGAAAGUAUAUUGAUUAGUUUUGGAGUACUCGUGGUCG;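 note: selection with 25 µg/mL kanamycin versus none on LB agar overnight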
- MEASUREMENT PARAMETERS: 30 °C

[in] Entry `ACGCAGCAAUAUUACGCCUU` : reported self-splicing fitness (ln) = ?
[out] -0.484
